system: HCT 116p53 ++; assay: Antiproliferation MTT assay, HCT 116; assay type: cell-based; details: Homo sapiens, HCT-116, Colon Cancer
parameter: IC50 (µM)

A. CN(Cc1cn2cc(-c3cnc(N)nc3)nc(N3CCOCC3)c2n1)c1ncc(C(=O)NO)cn1
B. Nc1ncc(-c2cn3cc(CN4CCN(c5ncc(C(=O)NO)cn5)CC4)nc3c(N3CCOCC3)n2)cn1
C. Nc1ncc(-c2cn3cc(CNc4ncc(C(=O)NO)cn4)nc3c(N3CCOCC3)n2)cn1
**Query** Lab note: order the above by reported IC50, lowest first, highest last. Form entry: ranked labels (order as requested).
**Result** A, B, C
